# pEC50 per entry
# SYSTEM NAME: T1, recombinant human CTLA4-Fc (human, UniProt P16410 36-162)
# T1 construct: also called human CTLA4 fused with human FC fragment; CTLA4-Fc (Sino Biological, 11159-H03H)
# T1 sequence (looked up): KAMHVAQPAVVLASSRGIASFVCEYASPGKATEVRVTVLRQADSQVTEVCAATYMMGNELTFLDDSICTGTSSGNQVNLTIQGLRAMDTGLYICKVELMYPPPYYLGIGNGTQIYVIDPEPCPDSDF
# EXPERIMENT: ELISA, coated human CTLA4-Fc (as in Example 8)
pEC50: −log10 of the molar value.

- BINDER: "TY22402 (antibody, IgG1, V domains shown, IgG1; peptide fused to the N-terminus of the light chain of TY21580) VH: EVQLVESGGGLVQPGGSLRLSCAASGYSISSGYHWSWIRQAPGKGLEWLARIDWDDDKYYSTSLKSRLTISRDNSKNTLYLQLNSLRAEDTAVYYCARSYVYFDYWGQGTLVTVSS VL: EVGSYIVHHSDCDAFYPYCDSSGRSAGGGGSPLGLAGSGGSDIQLTQSPSSLSASVGDRVTITCRASQSVRGRFLAWYQQKPGKAPKLLIYDASNRATGIPSRFSGSGSGTDFTLTISSLQPEDFATYYCQQSSSWPPTFGQGTKVEIKR"
  pEC50: 6.94
- BINDER: "TY22871 (antibody, V domains shown) VH: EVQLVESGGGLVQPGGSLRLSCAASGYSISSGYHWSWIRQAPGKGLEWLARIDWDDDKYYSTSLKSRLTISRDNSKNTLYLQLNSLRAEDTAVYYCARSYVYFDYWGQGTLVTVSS VL: DIQLTQSPSSLSASVGDRVTITCRASQSVRGRFLAWYQQKPGKAPKLLIYDASNRATGIPSRFSGSGSGTDFTLTISSLQPEDFATYYCQQSSSWPPTFGQGTKVEIKR"
  pEC50: 7.06
- BINDER: "TY22864 (antibody, V domains shown) VH: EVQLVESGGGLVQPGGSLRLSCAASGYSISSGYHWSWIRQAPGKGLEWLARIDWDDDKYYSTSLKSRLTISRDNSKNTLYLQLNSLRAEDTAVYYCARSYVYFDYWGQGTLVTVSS VL: DIQLTQSPSSLSASVGDRVTITCRASQSVRGRFLAWYQQKPGKAPKLLIYDASNRATGIPSRFSGSGSGTDFTLTISSLQPEDFATYYCQQSSSWPPTFGQGTKVEIKR"
  pEC50: 6.93
- BINDER: "TY22404 (antibody, IgG1, V domains shown, IgG1; peptide fused to the N-terminus of the light chain of TY21580) VH: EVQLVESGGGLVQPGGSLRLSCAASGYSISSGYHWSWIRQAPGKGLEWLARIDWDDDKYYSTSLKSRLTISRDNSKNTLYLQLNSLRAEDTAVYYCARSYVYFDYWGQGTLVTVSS VL: EVGSYPNPSSDCVPYYYACAYSGRSAGGGGSPLGLAGSGGSDIQLTQSPSSLSASVGDRVTITCRASQSVRGRFLAWYQQKPGKAPKLLIYDASNRATGIPSRFSGSGSGTDFTLTISSLQPEDFATYYCQQSSSWPPTFGQGTKVEIKR"
  pEC50: 6.92
